Experiment: Confirmation screen for delayed death inhibitors of the malarial parasite plastid, 48 hour incubation; note: nearly all actives have a fitted effect of over 65% in size
Conditions: P. falciparum-infected erythrocytes, luciferase growth; series mostly up to 28.7 µM
Among all 2,300 compounds or so, about 1,200 (52%) were called active. About 34% were inconclusive and are not listed. Calls come from the whole dose curve; as a rule, active = well fitted inhibition curve with a large enough effect; inconclusive = small, poorly fitted or top-dose-only effect, or effect the other way; inactive = no such curve, though single readings can be large or run the other way. The set was probably picked from earlier hits. The list shows a part of the results.
Your response should consist of one outcome taken from active, inactive

// below: answered molecules
CCOc1ccc(S(=O)(=O)N2CCCC(C(=O)NC3CC3)C2)cc1Cl (stereo not given): active
O=S(=O)(c1ccc(OCC(O)CN2CCN(c3ccc(F)cc3)CC2)cc1)N1CCOCC1 (stereo not given): active
COC(=O)COc1ccc(S(=O)(=O)NCCC2=CCCCC2)cc1Cl: inactive
Brc1ccc(/C=N/Nc2ncnc3c2cnn3Cc2ccccc2)cc1: active
COc1ccc(CNC(=O)c2cc(S(=O)(=O)N3CCOCC3)cn2C)cc1: inactive

Check the results log: what was the call for Cc1ccc(C)c(N(CC(=O)Nc2cc(Cl)ccc2Oc2ccccc2)S(C)(=O)=O)c1 ?
active

Check the results log: what was the call for Cc1cc(OCC(=O)N2CCCC2)cc(C)c1Cl ?
inactive

Check the results log: what was the call for O=C(COc1ccccc1)N1CCN(S(=O)(=O)c2ccc(Br)cc2)CC1 ?
active

Check the results log: what was the call for CN(Cc1ccc(Cl)c(Cl)c1)C(=O)C1=CC=CN2CCS(=O)(=O)N=C12 ?
active

Check the results log: what was the call for O=C1/C(=C/c2ccc(Cl)cc2)SC(=S)N1CCC(=O)N1CCCCC1CCO (stereo not given) ?
active

----------
Experiment: Confirmation screen for delayed death inhibitors of the malarial parasite plastid, 48 hour incubation; note: nearly all actives have a fitted effect of over 65% in size
Settings: P. falciparum-infected erythrocytes, luciferase growth; series mostly up to 28.7 µM
About 1,200 (52%) of roughly 2,300 compounds were called active. Roughly 34% stayed inconclusive and do not appear here. The call rests on the fitted dose curve; in most records, active means well fitted inhibition curve with a large enough effect; inconclusive means small, poorly fitted or top-dose-only effect, or effect the other way; inactive means no such curve, though single readings can be large or run the other way. So high a share suggests a set chosen from earlier hits. Some of the results follow.
Your response should consist of one outcome taken from active, inactive

Check the results log: what was the call for NC(=O)C1CCN(CC(=O)Nc2cccc(C(=O)Nc3cccc(C(F)(F)F)c3)c2)CC1 ?
active

Check the results log: what was the call for Cn1nnnc1Sc1ncnc2scc(-c3cccc(F)c3)c12 ?
active

Check the results log: what was the call for Cc1c(OCC(=O)NCc2cccnc2)ccc2c3c(c(=O)oc12)CCCC3 ?
active

Check the results log: what was the call for Cc1cccc(-c2ccc3ncnc(NCc4cccs4)c3c2)c1 ?
active

Check the results log: what was the call for Cc1onc(-c2ccccc2Cl)c1C(=O)N1CC(C)CC(C)C1 (stereo not drawn) ?
inactive

Check the results log: what was the call for CC(C)NS(=O)(=O)c1ccc(NC(=S)NC(=O)c2ccc(-c3ccccc3)cc2)cc1 ?
active

Check the results log: what was the call for O=Nc1c(-c2c(O)[nH]c3cc(Br)ccc23)[nH]c2ccccc12 ?
active

----------
Assay: Confirmation screen for delayed death inhibitors of the malarial parasite plastid, 48 hour incubation; note: nearly all actives have a fitted effect of over 65% in size; note: potency is the fitted concentration of half-maximal effect
Conditions: P. falciparum-infected erythrocytes, luciferase growth; series mostly up to 28.7 µM
Hit rate of the full screen: of about 2,300 compounds, about 1,200 (52%) were called active. Not shown: some 34% with an inconclusive outcome. The set was probably picked from earlier hits. This is one part of the list.
reported.endpoint: Potency

CCc1ccc(NC(=O)CSc2nc3n[nH]c(C)c3c(=N)n2-c2cccc(OC)c2)cc1: 5.62 µM (active)
O=C(c1ccc(Cl)cc1)C(Cn1cncn1)C(Sc1ccccc1)c1ccccc1 (stereo unspecified): 14.1 µM (active)
O=S1(=O)C=C(Sc2nc3cc(Cl)ccc3o2)c2ccccc21: 11.2 µM (active)
CCOc1cccc2sc(NC(=O)CCS(=O)(=O)c3ccccc3)nc12: 11.2 µM (active)
CCCCCn1c(=O)c2ccccc2n2c(CCl)nnc12: 10 µM (active)

// query Potency value for entry COc1ccc(Cn2c(-c3ccccc3)nc3c(c(=O)c4ccccc4n3C)c2=O)cc1
11.2 µM (active)

// query Potency value for entry O=S1(=O)C=C(Sc2nnc(-c3ccccc3)o2)c2ccccc21
12.6 µM (active)

// query Potency value for entry O=C(CSc1nc(-c2ccco2)cc(C(F)(F)F)n1)Nc1ccccc1C(F)(F)F
14.1 µM (active)

// query Potency value for entry N#C/C(=C\c1ccc(-c2ccc(C(=O)O)cc2)o1)C(=O)Nc1ccc(F)cc1
14.1 µM (active)

// query Potency value for entry COc1ccc2c(CC(=O)OCC(=O)Nc3cccc(S(N)(=O)=O)c3)coc2c1
inactive

// query Potency value for entry O=c1oc2ccccc2c(O)c1CN1CCCCC1
inactive
